FYI, the data here is from patent US20240425606A1.

experimentalSystem: T1, hIL-1 IR (Homo sapiens, UniProt Q14626)
T1 sequence (Q14626 23-422): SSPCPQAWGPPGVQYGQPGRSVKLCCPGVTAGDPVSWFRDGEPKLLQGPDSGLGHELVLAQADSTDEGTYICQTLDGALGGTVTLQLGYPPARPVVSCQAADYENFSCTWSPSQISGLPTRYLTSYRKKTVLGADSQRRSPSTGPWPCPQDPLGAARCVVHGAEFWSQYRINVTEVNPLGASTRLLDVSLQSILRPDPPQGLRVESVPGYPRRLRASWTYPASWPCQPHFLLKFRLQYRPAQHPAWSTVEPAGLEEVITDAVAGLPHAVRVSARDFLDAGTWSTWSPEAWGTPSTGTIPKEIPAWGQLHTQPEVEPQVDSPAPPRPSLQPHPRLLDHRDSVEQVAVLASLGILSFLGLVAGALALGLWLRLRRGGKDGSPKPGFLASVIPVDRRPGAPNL
protocolNotes: Alternate biolayer interferometry assay (AHC biosensors) ranking mAbs 16-32 against mAb5
Format: binding
runParameters: compared to mAb5

{"molecule": "mAb20: anti-IL-11Rα antibody; VH SEQ ID NO: 231, VL SEQ ID NO: 232; heavy chain Kabat position 31 variant of mAb5 (antibody, V domains shown, mAb20 VH Chain; mAb20 VL Chain, anti-IL-11Rα antibody; heavy chain Kabat position 31 variant of mAb5) VH: EVQLLESGGGLVQPGGSLRLSCAASGFTFSGYSMTWVRQAPGKGLEWVSSIVPYGDLTQYADSVKGRFTISRDNSKNTLYLQMNSLRAEDTAVYYCAKGPGWGSFDLWGRGTLVTVSS VL: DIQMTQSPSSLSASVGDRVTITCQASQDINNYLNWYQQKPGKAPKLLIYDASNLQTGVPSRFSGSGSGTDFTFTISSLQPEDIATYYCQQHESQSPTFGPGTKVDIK", "qualitative assessment": "similar"}
{"molecule": "mAb22: anti-IL-11Rα antibody; VH SEQ ID NO: 235, VL SEQ ID NO: 236; heavy chain Kabat position 31 variant of mAb5 (antibody, V domains shown, mAb22 VH Chain; mAb22 VL Chain, anti-IL-11Rα antibody; heavy chain Kabat position 31 variant of mAb5) VH: EVQLLESGGGLVQPGGSLRLSCAASGFTFSIYSMTWVRQAPGKGLEWVSSIVPYGDLTQYADSVKGRFTISRDNSKNTLYLQMNSLRAEDTAVYYCAKGPGWGSFDLWGRGTLVTVSS VL: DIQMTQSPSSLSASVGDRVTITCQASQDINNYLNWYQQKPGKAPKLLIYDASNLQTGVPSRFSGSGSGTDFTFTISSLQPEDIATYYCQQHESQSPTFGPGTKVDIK", "qualitative assessment": "similar"}
